# kon listing for each entry below
Molecular target: T1, soluble FGFR3c receptor protein (human, UniProt P22607 141-372)
T1 sequence: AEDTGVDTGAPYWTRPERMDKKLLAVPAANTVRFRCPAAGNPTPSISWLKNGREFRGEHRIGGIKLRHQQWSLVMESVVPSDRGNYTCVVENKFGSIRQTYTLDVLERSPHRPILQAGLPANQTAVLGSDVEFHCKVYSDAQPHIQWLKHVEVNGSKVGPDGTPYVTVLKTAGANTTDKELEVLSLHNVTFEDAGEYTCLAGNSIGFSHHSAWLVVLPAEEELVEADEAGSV
Experiment: BLI Octet RED96, antibody on anti-hIgG Fc tip
Method: Briefly, the Pall ForteBio Octet RED96 Bio-Layer Interferometry system was used to determine the specificity of anti-FGFR antibodies for FGFR1c, FGFR2c, FGFR3c, and FGFR4. […] The baseline step was followed by an association step of 300 seconds wherein the binding interaction between the immobilized antibodies and soluble receptors was measured. […] Each binding response was measured and reported real time on a sensorgram trace. […]

binder	kon / M⁻¹ s⁻¹
Vh2 combined with the VL of Ab15 (antibody, V domains shown, captured on anti-human IgG Fc tips) VH: EVQLVESGGGVVQPGRSLRLSCAASGFTFSSYAMHWVRQAPGKGLEWVAVISYDGSNKYYADSVKGRFTISRDNSKNTLYLQMNSLRAEDTAVYYCARGAGRGYTYGPDGFDIWGQGTMVTVSS VL: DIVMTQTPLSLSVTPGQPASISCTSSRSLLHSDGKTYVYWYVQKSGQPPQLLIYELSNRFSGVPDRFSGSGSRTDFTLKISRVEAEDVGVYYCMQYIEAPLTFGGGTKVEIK	121000
Vk12 combined with the VH of Ab15 (antibody, V domains shown, captured on anti-human IgG Fc tips) VH: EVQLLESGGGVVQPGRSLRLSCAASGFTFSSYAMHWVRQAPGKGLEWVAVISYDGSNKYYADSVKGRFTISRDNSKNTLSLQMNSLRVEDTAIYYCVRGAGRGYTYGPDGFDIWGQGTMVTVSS VL: DIVMTQSPLSLPVTPGEPASISCTSSRSLLHSDGKTYVYWYLQKPGQSPQLLIYELSNRFSGVPDRFSGSGSGTDFTLKISRVEAEDVGVYYCMQYIEAPLTFGGGTKVEIK	126000
Vk3 combined with the VH of Ab15 (antibody, V domains shown, captured on anti-human IgG Fc tips) VH: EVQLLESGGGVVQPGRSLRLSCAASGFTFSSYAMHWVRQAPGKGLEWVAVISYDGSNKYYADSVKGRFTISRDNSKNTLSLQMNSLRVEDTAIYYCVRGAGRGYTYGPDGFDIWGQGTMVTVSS VL: DIVMTQTPLSLSVTPGQPASISCTSSRSLLHSDGKTYVYWYLQKSGQPPQLLIYELSNRFSGVPDRFSGSGSRTDFTLKISRVEAEDVGVYYCMQYIEAPLTFGGGTKVEIK	126000
Vk11 combined with the VH of Ab15 (antibody, V domains shown, captured on anti-human IgG Fc tips) VH: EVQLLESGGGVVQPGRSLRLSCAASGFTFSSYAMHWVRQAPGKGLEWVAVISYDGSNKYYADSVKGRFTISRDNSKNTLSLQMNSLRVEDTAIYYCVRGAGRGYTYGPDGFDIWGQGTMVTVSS VL: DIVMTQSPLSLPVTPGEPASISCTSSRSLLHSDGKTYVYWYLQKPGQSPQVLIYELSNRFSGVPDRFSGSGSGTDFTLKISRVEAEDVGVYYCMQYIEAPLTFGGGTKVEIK	117000
Ab60 (antibody, human IgG2, kappa, V domains shown, format in the assays not spelled out) VH: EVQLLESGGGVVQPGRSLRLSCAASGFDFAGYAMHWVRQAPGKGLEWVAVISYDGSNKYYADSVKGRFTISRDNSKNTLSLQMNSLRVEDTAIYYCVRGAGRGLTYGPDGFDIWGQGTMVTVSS VL: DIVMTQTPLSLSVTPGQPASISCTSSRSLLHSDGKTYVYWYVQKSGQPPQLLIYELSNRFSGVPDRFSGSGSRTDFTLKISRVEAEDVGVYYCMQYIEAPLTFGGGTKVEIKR	154000
